# Tested on: wheat germ agglutinin (Triticum aestivum), Alexa647-labelled
# PROTOCOL_DETAILS: Alexa647-WGA lectin binding to printed small molecules – biochemical, small-molecule microarray, 635/667 nm fluorescence, artefact control for SMM control-protein annotation, profiling panel (AID 1140);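 further: score merges 667 nm feature emission with signal to noise over triplicate slides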
# ASSAY_CONTEXT: WGA-A647 binding, 635 nm fluorescence, higher = more signal
ENDPOINT: composite z-score

O=C1C2C=CC(C(O)c3cccc4ccccc34)N(Nc3ccccc3)C2C(=O)N1c1ccccc1 (stereo unspecified) = 0.753
C[C@H]1NC(=O)C([C@@H](C)OCc2ccccc2)NC(=O)[C@@]23C(=O)N[C@@H](Cc4ccccc4)C2[C@H](C)[C@@]2(C)O[C@H]2C3/C=C/CC/C=C/CNC1=O (stereo partly specified) = 0.384
COCCOC(=O)N1C(=O)[C@@]2(c3cc(C#Cc4ccc(OC)cc4)ccc31)[C@H](C(N)=O)[C@H]1C(=O)O[C@H](c3ccccc3)[C@H](c3ccccc3)N1[C@@H]2c1ccc(OCCO)cc1 = 0.695
COCCOC(=O)N1C(=O)[C@@]2(c3cc(C#Cc4ccc(OC)cc4)ccc31)[C@H](C(=O)N1CCc3cc(OC)c(OC)cc3C1)[C@H]1C(=O)O[C@H](c3ccccc3)[C@H](c3ccccc3)N1[C@@H]2c1ccc(O)cc1 = 0.659
CO[C@H]1O[C@H](CO)[C@@H](OC(=O)c2ccc(Br)cc2)[C@@H]2OC(=O)[C@H](Cc3cccc(Br)c3)C/C=C/C[C@@H](Cc3cccc(Br)c3)C(=O)O[C@@H]12 = 0.31
COC(=O)[C@@]1(Cc2ccccc2)[C@H]2c3cc(C(=O)N(C)C)n(Cc4ccccn4)c3C[C@H]2CN1C(=O)c1ccccc1 = 0.88
COCCOC(=O)N1C(=O)[C@@]2(c3cc(C#CC4(O)CCCCCC4)ccc31)[C@H](C(=O)N1CCN(c3ncccn3)CC1)[C@H]1C(=O)O[C@H](c3ccccc3)[C@H](c3ccccc3)N1[C@@H]2c1ccc(O)cc1 = 1.04
C=C(COC)C(=O)CC[C@H](OC(=O)c1ccccc1-c1ccccc1C(=O)O)c1ccc(CO)o1 = -0.2

In: Name the reported composite z-score value associated with the compound "C[C@@H]1ON(c2ccccc2)[C@H](c2ccccc2)[C@H]1C(=O)N1C(=O)OC[C@H]1Cc1ccccc1"
Out: 0.237
